meta.source: the Biogen ADME set (Fang et al. 2023)

Short version: intrinsic clearance, rat liver microsomes at least 200 mL/min/kg is y, less is n.

structure_string	category
CCOc1ccc(Nc2nc(-c3c(C)nc4ccccn34)cs2)cc1	y

Please tell me: is the molecule `COc1ccc(-n2cc3c(c2-c2ccccc2Br)c(=O)n(C)c(=O)n3C)cc1` at or over 200 mL/min/kg in terms of intrinsic clearance, rat liver microsomes?
y

Determine whether this molecule has intrinsic clearance, rat liver microsomes no lower than 200 mL/min/kg: `Cc1cccc(OCCCNc2cc(Cn3c(C)nc4ccccc43)nc(N)n2)c1`
y

In plain terms: is recorded intrinsic clearance, rat liver microsomes at least 200 mL/min/kg for `N[C@H](Cc1c[nH]c2ccccc12)C(=O)N/N=C/c1ccc2nccnc2c1` ?
n

Record `C=CC(=O)Nc1cccc(Oc2nc(Nc3ccc(N4CCN(C)CC4)cc3)nc3ccsc23)c1` ; criterion: intrinsic clearance, rat liver microsomes no lower than 200 mL/min/kg. Met?
y

Is reported intrinsic clearance, rat liver microsomes greater than or equal to 200 mL/min/kg here: `C[C@@]1(c2ncncc2F)NC(=O)c2cc(-c3cn[nH]c3)ccc21`
n

---

// log10(aqueous solubility) lookup, one value per entry
condition_notes: pH 6.8
Please be aware that the numbers have been log10-transformed from aqueous solubility in µg/mL.

Previously resolved entries follow.
molecule	measured_value
Cc1cc(C)n(-c2ccc(CNC(=O)c3ccc4c(c3)CCO4)cn2)n1	0.59
COc1ccc(Cc2ncnn2-c2ccc3c(c2)OCO3)c(OC)c1	1.54
COc1ccc2c(c1)C=C(CN1CCC(c3cc(-c4cncnc4)cc(C)n3)CC1)CO2	1.36
CCOc1cc2nn(CCC(C)(C)O)cc2cc1NC(=O)c1cccc(C(F)F)n1	0.55
Cc1c(C)n(Cc2ccccc2)c2ncnc(N)c12	1.63
CCOC(=O)c1cccnc1-c1cccc2ccnn12	1.66
CC(C)c1nc(O)c2nnn(C[C@@H]3CCCN(C(=O)C(C)(C)C)C3)c2n1	1.64
Cc1cnc(CS(=O)(=O)C2CCCC2)cn1	1.56

Reported log10(aqueous solubility) for `Cc1cccc(NC2CCN(Cc3ccncc3)CC2)n1` : what is it?
1.58

Name the recorded log10(aqueous solubility) for `CNC(=O)c1cc(C2CCN(C)CC2)ncn1` .
1.51

---

observable: intrinsic clearance, human liver microsomes (mL/min/kg)
State just the number; it will be interpreted in mL/min/kg.

molecule	measured_value
COc1ncccc1CNc1c(C#N)cnc2c(C)cc(F)cc12	156
c1ccc(-n2cnc3cc(NCc4ccccn4)ccc32)cc1	22.6
Cc1nnc(NC(=O)c2nn(-c3ccc(F)cc3)c3c2CCCC3)s1	42
O=C(c1ccccc1F)N1CCC[C@@H]1Cn1nnn(-c2cccs2)c1=O	62.4
Cc1ccc(Oc2ccc(Cl)cc2NC(=O)CN(C)CC(=O)N(C)C)cc1	1050

What does the record list as intrinsic clearance, human liver microsomes for `COCc1cc(-c2nc(CCc3ccccc3)n[nH]2)ccc1OC` ?
70.4

Dear colleague, I am looking for the recorded intrinsic clearance, human liver microsomes of the following molecule: `COc1ccc2ccccc2c1CNC(=O)c1cnc(C2CC2)nc1`
33.7

If you can, please state the reported intrinsic clearance, human liver microsomes value of `CN(Cc1c(F)cccc1Cl)C(=O)c1ccc(-n2ccnc2)nc1` .
26.3

Sample `Cc1cc(C)cc(C(=O)Nc2c(C#N)cnn2C)c1` — what was its intrinsic clearance, human liver microsomes?
27.3
